B1: glmS ribozyme (parent)
chain: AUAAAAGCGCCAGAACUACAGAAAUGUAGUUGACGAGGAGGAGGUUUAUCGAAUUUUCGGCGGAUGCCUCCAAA

# Variants of: B1
# Protocol Text: self-cleavage kobs at 640 uM GlcN6P; higher = faster cleavage; RNA array
# Test Context: with glucosamine-6-phosphate
Fewer inactive variants are shown than the library holds.
The following variants are shown together with reported self-cleavage kobs at 640 uM GlcN6P values.

Solved entries (count: 5):
Mutant Code | Assay Result
G60C A64U | < 1e-05 s⁻¹
A15U A42U G51A C67U | < 1e-05 s⁻¹
C34G G44A U56C U57C | < 1e-05 s⁻¹
A15G U30A C67A C70U | 0.000654 s⁻¹
G9U A48U C58G C67U | < 1e-05 s⁻¹

Returns the measured self-cleavage kobs at 640 uM GlcN6P for the input variant. Input: G29C A53C
0.00013 s⁻¹

Entry under review: U31C A42G G66A . Reported self-cleavage kobs at 640 uM GlcN6P?
0.000315 s⁻¹

Consider the variant shown here: A12G U45G What is its recorded self-cleavage kobs at 640 uM GlcN6P?
6.36e-05 s⁻¹

Find the recorded self-cleavage kobs at 640 uM GlcN6P belonging to G40A U56C and report it.
4.68e-05 s⁻¹

May I ask what self-cleavage kobs at 640 uM GlcN6P has been recorded for G37A G40A ?
0.000135 s⁻¹

Fill blank: measured self-cleavage kobs at 640 uM GlcN6P of the variant C16U C70A is ____.
0.000148 s⁻¹
